Values compiled from patent EP1247803A2.

Reported values of Biochem EGFR %Inhibition for individual entries
molecular target: EGFR (Homo sapiens, UniProt P00533); construct: Add 7 ug A431 cell lysate per well (EGFR source); endogenous in cells; host or cells: A431; assay: EGFR ELISA assay (in vitro kinase activity, EGFR captured from A431 cell lysate); type: biochemical; parameters: concentration or dose not given beside the values
Sequence (P00533 25-1210): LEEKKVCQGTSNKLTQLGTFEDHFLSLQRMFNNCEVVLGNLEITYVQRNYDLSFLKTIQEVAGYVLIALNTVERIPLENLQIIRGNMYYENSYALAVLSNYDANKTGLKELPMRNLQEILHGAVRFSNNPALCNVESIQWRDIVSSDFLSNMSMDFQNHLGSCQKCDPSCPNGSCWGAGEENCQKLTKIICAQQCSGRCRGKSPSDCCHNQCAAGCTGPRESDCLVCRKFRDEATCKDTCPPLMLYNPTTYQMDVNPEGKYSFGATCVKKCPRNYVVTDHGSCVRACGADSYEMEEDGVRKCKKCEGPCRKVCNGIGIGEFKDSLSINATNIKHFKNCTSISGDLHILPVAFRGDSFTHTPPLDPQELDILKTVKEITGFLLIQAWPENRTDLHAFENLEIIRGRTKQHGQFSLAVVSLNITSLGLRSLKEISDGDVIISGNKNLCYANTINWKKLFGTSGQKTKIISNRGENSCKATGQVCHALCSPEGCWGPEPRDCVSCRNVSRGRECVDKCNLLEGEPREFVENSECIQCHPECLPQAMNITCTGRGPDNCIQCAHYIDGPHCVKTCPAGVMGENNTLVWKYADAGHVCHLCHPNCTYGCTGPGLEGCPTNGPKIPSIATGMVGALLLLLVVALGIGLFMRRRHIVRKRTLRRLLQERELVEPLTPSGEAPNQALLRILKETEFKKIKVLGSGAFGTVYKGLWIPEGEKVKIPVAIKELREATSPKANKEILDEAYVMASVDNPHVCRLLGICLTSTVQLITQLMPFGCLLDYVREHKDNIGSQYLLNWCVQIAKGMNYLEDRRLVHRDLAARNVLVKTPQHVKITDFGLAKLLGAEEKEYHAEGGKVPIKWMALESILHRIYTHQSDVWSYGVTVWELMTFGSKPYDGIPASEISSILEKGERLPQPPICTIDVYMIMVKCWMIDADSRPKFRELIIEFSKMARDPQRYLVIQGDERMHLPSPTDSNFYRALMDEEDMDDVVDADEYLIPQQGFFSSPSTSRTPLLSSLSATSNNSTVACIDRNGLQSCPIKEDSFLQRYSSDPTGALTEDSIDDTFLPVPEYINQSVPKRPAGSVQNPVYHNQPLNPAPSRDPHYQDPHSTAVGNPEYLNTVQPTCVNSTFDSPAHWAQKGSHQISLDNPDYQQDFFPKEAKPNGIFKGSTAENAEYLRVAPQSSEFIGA
Express the reported value numerically, then name its unit.

O=C1Nc2ccc(CCCl)cc2C1=Cc1cccc([N+](=O)[O-])c1 | -27.6%
CCN(CC)c1ccc(C=C2C(=O)Nc3c(Br)cc(Br)cc32)cc1 | 3.2%
COc1ccc(O)c(C=C2C(=O)Nc3c(Br)cc(Br)cc32)c1 | -2.7%
CCOc1ccc(C=C2C(=O)Nc3ccc(CCCl)cc32)cc1OC | -12.2%
CNS(=O)(=O)c1ccc2c(c1)C(=Cc1c[nH]c3ccccc13)C(=O)N2 | -23.4%

Suppose we examine the compound `CNS(=O)(=O)c1ccc2c(c1)C(=Cc1cccc(OC)c1O)C(=O)N2` ; what Biochem EGFR %Inhibition value has been reported?
33.5%

Moving on to the next compound: `O=C1Nc2ccc(CCCl)cc2C1=Cc1ccc([N+](=O)[O-])s1`
-13.3%

Moving on to the next compound: `CCOc1ccc(C=C2C(=O)Nc3ccc(S(=O)(=O)NC)cc32)cc1OC`
9.8%

Moving on to the next compound: `CN1C(=O)C(=C2C(=O)Nc3ccc(CCCl)cc32)c2ccccc21`
5.5%

* * *

target: EGFR (Homo sapiens, UniProt P00533); construct: Add 7 ug A431 cell lysate per well (EGFR source); endogenous in cells; host or cells: A431; assay: EGFR ELISA assay (in vitro kinase activity, EGFR captured from A431 cell lysate); assay type: biochemical; set-up: concentration or dose not given beside the values
We use -20% as the dividing line for Biochem EGFR %Inhibition: on or above the line is class 1, below is class 0.

Solved cases below.
CCc1cc(CC)c(C=C2C(=O)Nc3c(Br)cc(Br)cc32)[nH]1 | class 1
COc1cc(OC)c(C=C2C(=O)Nc3ccc(I)cc32)c(OC)c1 | class 1
CNS(=O)(=O)c1ccc2c(c1)C(=Cc1cc(C(C)(C)C)cc(C(C)(C)C)c1O)C(=O)N2 | class 1
Cn1cccc1C=C1C(=O)Nc2ccc(CCCl)cc21 | class 1
COc1cc(C=C2C(=O)Nc3ccc(CCCl)cc32)cc(OC)c1OC | class 1

Pending compound:
Hi, just wondering whether `COc1cc(OC)c(C=C2C(=O)Nc3ccc(CCCl)cc32)c(OC)c1` shows Biochem EGFR %Inhibition of -20% or higher.
class 0

* * *

Reported values of PDGF Kinase %Inhibition for individual entries
molecular target: PDGF-R (Homo sapiens); test: PDGF-R ELISA; assay type: cell-based
Sequence (P09619 33-1106, species assumed): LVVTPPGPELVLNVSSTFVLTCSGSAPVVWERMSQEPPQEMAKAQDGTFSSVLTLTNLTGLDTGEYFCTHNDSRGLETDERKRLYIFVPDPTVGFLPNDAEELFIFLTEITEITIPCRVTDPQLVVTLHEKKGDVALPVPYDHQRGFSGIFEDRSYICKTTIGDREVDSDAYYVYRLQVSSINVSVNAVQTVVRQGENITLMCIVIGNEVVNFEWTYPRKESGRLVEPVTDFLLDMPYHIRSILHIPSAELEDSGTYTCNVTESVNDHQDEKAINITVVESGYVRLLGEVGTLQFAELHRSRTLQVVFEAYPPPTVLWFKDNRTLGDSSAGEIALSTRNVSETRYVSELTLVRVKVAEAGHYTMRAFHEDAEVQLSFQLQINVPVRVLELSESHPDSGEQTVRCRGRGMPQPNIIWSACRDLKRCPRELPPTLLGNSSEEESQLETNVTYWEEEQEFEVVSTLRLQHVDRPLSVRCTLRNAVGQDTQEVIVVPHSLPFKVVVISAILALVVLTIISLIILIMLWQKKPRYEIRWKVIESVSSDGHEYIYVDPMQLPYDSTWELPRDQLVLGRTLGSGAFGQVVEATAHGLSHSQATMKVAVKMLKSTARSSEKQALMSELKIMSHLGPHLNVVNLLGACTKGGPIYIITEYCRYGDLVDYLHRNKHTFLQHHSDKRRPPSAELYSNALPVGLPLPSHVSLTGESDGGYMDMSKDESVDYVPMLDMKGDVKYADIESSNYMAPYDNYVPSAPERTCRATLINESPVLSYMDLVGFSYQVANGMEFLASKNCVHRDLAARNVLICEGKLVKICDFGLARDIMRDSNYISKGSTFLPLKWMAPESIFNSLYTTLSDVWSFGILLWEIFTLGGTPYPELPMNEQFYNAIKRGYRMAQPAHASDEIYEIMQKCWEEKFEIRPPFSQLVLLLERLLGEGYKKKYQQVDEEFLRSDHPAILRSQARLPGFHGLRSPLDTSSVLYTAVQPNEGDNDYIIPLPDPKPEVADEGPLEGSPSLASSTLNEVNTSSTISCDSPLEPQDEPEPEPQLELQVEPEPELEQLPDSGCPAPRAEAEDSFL
Answer with a number only, understood to be in %.

Worked cases, PDGF Kinase %Inhibition given:
COc1c(O)ccc(C=C2C(=O)Nc3c(Br)cc(Br)cc32)c1[N+](=O)[O-] [10733/A11] | 4.2
O=C1Nc2ccc(S(=O)(=O)Nc3ccc(C(F)(F)F)cc3)cc2C1=Cc1ccc([N+](=O)[O-])c(O)c1 [10724/E04] | -32.6
CSc1ccc(C=C2C(=O)Nc3c(Br)cc(Br)cc32)cc1 [10729/A04] | -16.6
COC(=O)Cc1c(Cl)[nH]c(C=C2C(=O)Nc3ccc(I)cc32)c1C(=O)OC [10725/B09] | 43.8
Cc1c(Br)ccc2c1C(=Cc1ccc(N3CCOCC3)cc1)C(=O)N2 [10725/C08] | 101.7
N#Cc1ccc(C=C2C(=O)Nc3ccc(S(=O)(=O)N4CCOCC4)cc32)cc1 [10727/F09] | 21.7
COc1ccc(Br)c(C=C2C(=O)Nc3ccc(S(=O)(=O)Nc4ccc(C(F)(F)F)cc4)cc32)c1O [10725/E03] | 10.7

Would you kindly look at the next entry?
Suppose we examine the compound CC(C)c1cc(C=C2C(=O)Nc3ccc(I)cc32)cc(C(C)C)c1Oc1ccccc1 [10732/B04] ; what PDGF Kinase %Inhibition value has been reported?
16.9
